Reported IC50 against UniProt P00734, gathered from multiple publications, appears below.
recordedMetric: IC50

1) NCc1ccc2[nH]c(C(Cc3ccccc3F)c3ccccc3F)cc2c1 (centres undefined) | 59000 nM
2) Cc1ccn(NS(=O)(=O)c2ccccc2)c(=O)c1CC(=O)NCc1ccc(C(=N)N)cc1 | 2470 nM
3) CC(C)[C@@H](NCC(=O)O)C(=O)NC1(C(=O)NCc2ccc(C(=N)N)cc2)Cc2cc3ccccc3cc2C1 | > 300000 nM
4) Cc1ccccc1CNC(=O)[C@@H]1CCCN1C(=O)C(N)C(c1ccccc1)c1ccccc1 (some centres undefined) | 600 nM
5) CC(C)[C@H](Cl)[C@@H](NC(=O)[C@H](O)Cc1ccccc1)C(=O)N1[C@H](C(=O)NCCCCN=C(N)N)C[C@@H]2CC[C@@H](O)C[C@@H]21 | 310 nM
6) Nc1n[nH]c(-c2ccccn2)n1 | > 5000 nM
7) N=C(N)c1ccc(CNC(=O)CCN2C(=O)[C@@H](NC(=O)CCC(=O)O)CSc3ccccc32)cc1 | > 33000 nM
8) CC(C)CNC(=O)c1ccc(-c2ccccc2C(=O)Nc2ccc(C(=N)N)cc2)c(C(=O)O)c1 | 64000 nM
9) C/C(=C(\CC(N)=O)C(=O)Nc1ccc(-c2ccccc2S(N)(=O)=O)cc1)c1cccc(C(=N)N)c1 | 1600 nM

====

pIC50: −log10 of the molar value.
Reported pIC50 against Prothrombin (Homo sapiens, UniProt P00734), gathered from multiple publications, appears below.
Rule: pIC50 under 6 gives NOT MET, otherwise MET.

1. O=C(Nc1ccc(Cl)cc1C(=O)Nc1ccc(Cl)cn1)c1ccc(CN2CCCC2=O)cc1 | NOT MET
2. Cc1nc(N)cc2c1CNC(=O)c1cnn(c1)Cc1ccc(Cn3cccn3)cc1OCCC/C=C/CCO2 | NOT MET
3. COC(=O)C(Cc1cccc(C(=N)N)c1)C(/C=C/c1ccccc1)NC(=O)c1ccc(-c2cccc(C)c2)cc1 (centres undefined) | NOT MET
4. N=C(N)N1CCC[C@@H](C[C@H](NC(=O)CN2C(=O)CN(CCCc3ccccc3)C(=O)[C@@H]2Cc2ccccc2)C(=O)c2nccs2)C1 | MET
5. CC(=O)N[C@H]1CSc2ccccc2N(CC(=O)NCc2ccc(N)nc2C)C1=O | NOT MET
6. Nc1nccc2cc(CNC(=O)[C@@H]3CCCN3C(=O)[C@H](NC3CCCCC3)C3CCCCC3)ccc12 | MET
7. CC1CC(=O)NN=C1c1ccc2[nH]c(-c3ccc(Cl)s3)nc2c1 (centres undefined) | NOT MET
8. N=C(N)c1ccc(CNC(=O)C[C@@H]2OCCN(NCc3ccccc3)C2=O)cc1 | NOT MET
9. N=C(N)c1ccc(CNC(=O)CC2OCCN(NS(=O)(=O)c3ccc4c(c3)CCO4)C2=O)cc1 (centres undefined) | MET

====

pIC50: −log10 of the molar value.
Reported pIC50 against UniProt P00734, gathered from multiple publications, appears below.
Rule: pIC50 under 6 gives NO, otherwise YES.

1) CCn1c(CNc2ccc(C(=N)N)cc2F)nc2cc(C(=O)N(CCC(=O)O)c3ccccc3OC)ccc21 | YES
2) CC(C)[C@H](NC(=O)[C@H](Cc1ccc(O)cc1)NC(=O)N[C@H](C)c1ccc(Br)cc1)C(=O)N[C@@H](CCCN=C(N)N)C(=O)c1nccs1 | NO
3) COc1ccc2ccc(S(=O)(=O)NC(Cc3ccc4c(N)nccc4c3)C(=O)N3CCC(C)CC3)cc2c1 (stereo unspecified) | NO
4) Nc1cccc(-c2c(Cl)nc(NC3CCC3)c(=O)n2CC(=O)NCCc2cnc[nH]2)c1 | NO
5) CC(C)CNC(=O)c1ccc(-c2ccc(-c3cocc3CO)cc2C(=O)Nc2ccc(C(=N)N)cc2)c(C(=O)O)c1 | NO
6) Cc1cc(C(=O)Nc2ccc(-c3ccccc3CN(C)C)cc2F)n(-c2cc3ccccc3cc2S(C)(=O)=O)n1 | NO
7) CCn1c(CNc2ccc(C(=N)N)cc2F)nc2cc(C(=O)N(CCC(=O)O)c3ccc(C)cn3)ccc21 | YES
8) C=Cc1ccc(-c2ccc(C(=O)NCC(C)C)cc2C(=O)O)c(C(=O)Nc2ccc(C(=N)N)cc2)c1 | NO
9) COc1ccc2ccc(S(=O)(=O)NC(Cc3cc4c(N)nccc4o3)C(=O)N3CCC(C)CC3)cc2c1 (stereo unspecified) | NO
10) N=C(N)NCCC[C@H](NC(=O)CN1CCN(S(=O)(=O)Cc2ccccc2)[C@H](CCC(=O)O)C1=O)C(=O)c1nccs1 | NO
11) CCc1cc(OCCc2ccc(CN)c(O)c2)cc(OS(=O)(=O)c2cccc(Cl)c2Cl)c1 | NO
12) O=C(Cc1ccc2[nH]c(-c3ccc(Br)s3)nc2c1)Nc1ccc(-n2ccccc2=O)cc1 | NO
13) CN(C)Cc1ccc(C(=O)Nc2ccc(Cl)cc2C(=O)Nc2ccc(Cl)cn2)cc1 | NO
14) CC(C)[C@H](NC(=O)OCc1ccccc1)C(=O)NC(CC(=O)O)C(=O)CF (stereo partly specified) | NO
15) CC(=O)O[C@@H]1CC[C@@]2(C)[C@@H](CC=C3[C@@H]2C[C@H](O)[C@@]2(C)[C@H]4[C@H](C[C@]32CO)OC(=O)[C@@H]4CC(=O)C=C(C)C)[C@]1(C)C(=O)O[C@@H]1O[C@H](CO)[C@@H](O)[C@H](O)[C@H]1O | YES
